biological target: hGLP-1R (Homo sapiens, UniProt P43220); assay: cell-based or functional assay
Sequence (P43220 24-463): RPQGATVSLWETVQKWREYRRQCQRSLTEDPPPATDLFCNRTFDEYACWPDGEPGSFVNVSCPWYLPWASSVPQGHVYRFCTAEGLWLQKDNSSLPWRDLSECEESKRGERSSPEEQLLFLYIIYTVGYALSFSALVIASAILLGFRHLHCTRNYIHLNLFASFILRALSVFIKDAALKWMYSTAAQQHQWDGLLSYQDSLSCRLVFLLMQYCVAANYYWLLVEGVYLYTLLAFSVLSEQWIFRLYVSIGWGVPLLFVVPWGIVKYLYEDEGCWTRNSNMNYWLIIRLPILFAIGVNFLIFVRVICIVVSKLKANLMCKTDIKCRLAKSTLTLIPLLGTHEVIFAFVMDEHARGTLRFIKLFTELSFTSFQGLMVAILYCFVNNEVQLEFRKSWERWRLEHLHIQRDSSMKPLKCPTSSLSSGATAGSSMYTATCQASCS
Starred links: 1 amine or outer side, 2 acyl side, 3 side chain; linkers in the order of their positions; H or OH if unused. Non-standard residues stand in square brackets, D forms with d. Groups on a side chain read outwards from the residue. No end group written: not given here. *: point of attachment. C20 diacid = O=C(O)CCCCCCCCCCCCCCCCCCC(=O)*; γGlu = O=C(O)[C@H](CCC(=O)[*:2])N[*:1]; αMeL = CC(C)C[C@](C)(N)C(=O)O; AEEA = NCCOCCOCC(=O)O; Aib = CC(C)(N)C(=O)O
Under this convention, yes (1) denotes Relative cAMP EC50 strictly below 700 pM and no (0) denotes Relative cAMP EC50 at or above 700 pM.

Worked examples, 3 binders total:
[[record]]
binder = "YXQGTXTSDXSIXLDXKAQXAFIEYLEEGGPSSGAPPPS (synthetic construct; SITE 2: note = 2-Aminoisobutyric Acid; SITE 6: note = alpha-methyl-2-fluoro-L-phenylalanine; SITE 10: note = 3-(4-Pyridyl)-L-alanine; SITE 13: note = alpha-methyl-leucine; SITE 16: note = L-ornithine; SITE 17: note = Lysine is chemically modified through conjugation of the epsil) [Example 441]"
classification = "yes (1)"

[[record]]
binder = "Y[Aib]QGTFTSDYSI[αMeL]LDKQAAK([AEEA-AEEA-γGlu-C20 diacid])QFVEWLIAGGPSSGEPPPAEG-NH2 [Example 332]"
classification = "no (0)"

[[record]]
binder = "YXQGTFTSDXSKXLDKKAQXAFIEYLIEXGPSSGAPPPSGS (synthetic construct; SITE 2: note = 2-Aminoisobutyric Acid; SITE 10: note = 3-(4-Pyridyl)-L-alanine; SITE 13: note = alpha-methyl-leucine; SITE 17: note = Lysine is chemically modified through conjugation of the epsilon-amino group of the Lysine side chain with (gamma-Glu)2-CO-(CH2)16-CO2H; SITE 20:) [Example 907]"
classification = "no (0)"


QUERY: Please indicate whether the reported Relative cAMP EC50 of Y[Aib]QGTFTSDYSK[αMeL]LDKK([AEEA-γGlu-C20 diacid])AQQAFIQWLIEGGPSSGEPPPSEG-NH2 [Example 314] is strictly below 700 pM.
RESULT: yes (1)
